Data origin: patent US20190359693A1

target: hemagglutinin (HA) of influenza virus H5N1 A/Vietnam/1194/04 (influenza A virus); assay: cell-based or functional assay
Listed binders paired with reported neutralization titer
Hi! Could you send only the number? It should be in nM, unit omitted.

Here are 2 binders together with their reported answers.
Given item MD1210 (bispecific antibody) EVQLVESGGGLVQAGGSLKLSCAASGRTYAMGWFRQAPGKEREFVAHINALGTRTYYSDSVKGRFTISRDNAKNTEYLEMNNLKPEDTAVYYCTAQGQWRAAPVAVAAEYEFWGQGTQVTVSSAAAGGGGSGGGGSGGGGSGGGGSGGGGSGGGGSGGGGSEVQLVESGGGLVQPGGSLRLSCAVSISIFDIYAMDWYRQAPGKQRDLVATSFRDGSTNYADSVKGRFTISRDNAKNTLYLQMNSLKPEDTAVYLCHVSLYRDPLGVAGGMGVYWGKGALVTVSS , the value recorded as its neutralization titer is 21.4

Given item MD1211 (bispecific antibody) EVQLVESGGGLVQPGGSLRLSCAVSISIFDIYAMDWYRQAPGKQRDLVATSFRDGSTNYADSVKGRFTISRDNAKNTLYLQMNSLKPEDTAVYLCHVSLYRDPLGVAGGMGVYWGKGALVTVSSAAAGGGGSGGGGSGGGGSGGGGSGGGGSGGGGSGGGGSEVQLVESGGGLVQAGGSLKLSCAASGRTYAMGWFRQAPGKEREFVAHINALGTRTYYSDSVKGRFTISRDNAKNTEYLEMNNLKPEDTAVYYCTAQGQWRAAPVAVAAEYEFWGQGTQVTVSS , the value recorded as its neutralization titer is 7.6

Next, consider the following binder.
Given item MD1212 (VHH) EVQLVESGGGLVQPGGSLRLSCAVSISIFDIYAMDWYRQAPGKQRDLVATSFRDGSTNYADSVKGRFTISRDNAKNTLYLQMNSLKPEDTAVYLCHVSLYRDPLGVAGGMGVYWGKGALVTVSSAAAGGGGSGGGGSGGGGSGGGGSGGGGSGGGGSGGGGSEVQLVESGGGLVQPGGSLRLSCAVSISIFDIYAMDWYRQAPGKQRDLVATSFRDGSTNYADSVKGRFTISRDNAKNTLYLQMNSLKPEDTAVYLCHVSLYRDPLGVAGGMGVYWGKGALVTVSS , the value recorded as its neutralization titer is 14.8
